Square brackets hold non-standard residues; d marks the D form. Peptide text beside a SMILES is read from it. Cha = N[C@@H](CC1CCCCC1)C(=O)O
Reported IC50 for target or system Atrial natriuretic peptide receptor 1 (Homo sapiens), by entry.

CC[C@H](C)[C@H](NC(=O)[C@H](CCCNC(=N)N)NC(=O)[C@H](CC(=O)O)NC(=O)[C@@H](NC(=O)[C@H](CCCNC(=N)N)NC(=O)CNC(=O)CNC(=O)[C@H](CC1CCCCC1)NC(=O)[C@@H](N)CS)[C@@H](C)CC)C(=O)NCC(N)=O (H-C[Cha]GGRIDRIG-NH2); 120 nM
CC[C@H](C)[C@H](NC(=O)[C@H](CCCNC(=N)N)NC(=O)[C@H](CC(=O)O)NC(=O)[C@@H](NC(=O)[C@H](CCCNC(=N)N)NC(=O)CNC(=O)CNC(=O)[C@H](CC1CCCCC1)NC(=O)CNC(=O)[C@H](CO)NC(=O)[C@H](Cc1ccccc1)NC(=O)[C@@H](N)CO)[C@@H](C)CC)C(=O)NCC(N)=O (H-SFSG[Cha]GGRIDRIG-NH2); > 1000 nM

# ---- query compound ----
So the reported IC50 for "CC[C@H](C)[C@H](NC(=O)[C@H](CCCNC(=N)N)NC(=O)[C@H](CC(=O)O)NC(=O)[C@@H](NC(=O)[C@H](CCCNC(=N)N)NC(=O)CNC(=O)CNC(=O)[C@H](CC1CCCCC1)NC(=O)CNC(=O)[C@H](CO)NC(=O)[C@H](N)Cc1ccccc1)[C@@H](C)CC)C(=O)NCC(N)=O" , on Atrial natriuretic peptide receptor 1 (Homo sapiens), turned out to be > 1000 nM
